- SYSTEM_TESTED: Olfr741 (Mus musculus, UniProt L7N1Y5)
- Sequence (L7N1Y5 entry or part of it): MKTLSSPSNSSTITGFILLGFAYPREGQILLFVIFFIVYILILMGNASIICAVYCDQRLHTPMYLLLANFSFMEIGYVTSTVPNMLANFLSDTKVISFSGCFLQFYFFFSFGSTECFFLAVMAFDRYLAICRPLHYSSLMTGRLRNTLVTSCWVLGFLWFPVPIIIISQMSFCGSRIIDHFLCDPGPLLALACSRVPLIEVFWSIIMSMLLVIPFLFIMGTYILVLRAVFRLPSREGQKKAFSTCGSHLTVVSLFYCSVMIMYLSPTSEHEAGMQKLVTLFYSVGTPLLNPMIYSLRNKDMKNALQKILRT
- PROCEDURE_TEXT: Indole antagonist dose-response, cAMP HTRF in HEK293T, vs indole EC80
- Format: cell-based
- MEASUREMENT_CONDITIONS: Table 22, first listing
Documented IC50 across a set of compounds
Give just the numeric value; µM need not be written.

Please review the following examples before continuing.
c1nc2c(o1)CCCCCCCCCC2 : 33.7
CC1(C)CCC[C@]2(C)CC(=O)CC[C@@H]12 (racemic) : 148
CC1C(C)(C)C2=C(C(=O)CCC2)C1(C)C (centres unmarked) : 2560
C/C=C/C(=O)C1C(C)=CCCC1(C)C (racemic) : 110

[in] Provide the reported IC50 (system: Olfr741 (Mus musculus, UniProt L7N1Y5)) for C=C1CC[C@H]2O[C@]2(C)CC[C@@H]2[C@@H]1CC2(C)C
[out] 108
